Molecular target: T1, human MMP-2 (Biomol #SE-237) (human, UniProt P08253 110-452, limits assumed)
T1 construct: also called hMMP-2
T1 sequence (P08253 110-452 limits assumed): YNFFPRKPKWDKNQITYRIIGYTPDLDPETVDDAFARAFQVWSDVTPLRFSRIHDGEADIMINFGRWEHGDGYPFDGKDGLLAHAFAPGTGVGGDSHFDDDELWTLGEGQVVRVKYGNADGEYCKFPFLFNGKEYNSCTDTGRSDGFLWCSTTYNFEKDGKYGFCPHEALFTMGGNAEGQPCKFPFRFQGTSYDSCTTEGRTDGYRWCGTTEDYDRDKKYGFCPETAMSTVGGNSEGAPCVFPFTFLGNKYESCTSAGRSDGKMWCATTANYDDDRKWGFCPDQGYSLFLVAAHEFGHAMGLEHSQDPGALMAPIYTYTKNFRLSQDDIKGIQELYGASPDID
Assay: Ki,app, enzyme inhibition assay (fluorogenic peptide substrate), IgG
Quantity kind: Ki (nM)
// note: answer is a bare numeric in nM

• X0106-F05 (antibody, V domains shown, Produced and tested as IgG1; germlined, optimized version of M0307-F04) VH: EVQLLESGGGLVQPGGSLRLSCAASGFTFSLYDMWWVRQAPGKGLEWVSVIYSSGGYTGYADSVKGRFTISRDNSKNTLYLQMNSLRAEDTAVYYCAKDRAYGDYVGWNGFDYWGQGTLVTVSS VL: EIVLTQSPATLSLSPGERATLSCRASQSISSFLAWYQQKPGQAPRLLIYDASYRATGIPARFSGSGSGTDFTLTISSLEPEDFAVYYCQQRGNWPITFGQGTRLEIK = 0.3
• X0106-A01 (antibody, V domains shown, Produced and tested as IgG1; germlined, optimized version of M0256-D11; also called X106-A01; X106-A01 IgG) VH: EVQLLESGGGLVQPGGSLRLSCAASGFTFSHYDMWWVRQAPGKGLEWVSVIYSSGGPTFYADSVKGRFTISRDNSKNTLYLQMNSLRAEDTAVYYCAKDRAYGDYVGWNGFDYWGQGTLVTVSS VL: EIVLTQSPATLSLSPGERATLSCRASQSISSFLAWYQQKPGQAPRLLIYDASYRATGIPARFSGSGSGTDFTLTISSLEPEDFAVYYCQQRGNWPITFGQGTRLEIK = 0.34

With those in mind, consider the next binder.
Ki measured on X0106-C03 (antibody, V domains shown, Produced and tested as IgG1; germlined, optimized version of M0274-G08; printed as X0106-C04 in some sentences; also called X0106-C04) VH: EVQLLESGGGLVQPGGSLRLSCAASGFTFSVYDMWWVRQAPGKGLEWVSVIYPSGGATYYADSVKGRFTISRDNSKNTLYLQMNSLRAEDTAVYYCAKDRAYGDYVGWNGFDYWGQGTLVTVSS VL: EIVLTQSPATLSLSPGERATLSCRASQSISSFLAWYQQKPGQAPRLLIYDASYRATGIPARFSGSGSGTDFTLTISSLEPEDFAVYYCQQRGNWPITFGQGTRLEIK = 0.42
